Target: T1, human IL-1RAcP on 293T/17-FR cells (human, UniProt Q9NPH3 21-570)
T1 sequence (looked up): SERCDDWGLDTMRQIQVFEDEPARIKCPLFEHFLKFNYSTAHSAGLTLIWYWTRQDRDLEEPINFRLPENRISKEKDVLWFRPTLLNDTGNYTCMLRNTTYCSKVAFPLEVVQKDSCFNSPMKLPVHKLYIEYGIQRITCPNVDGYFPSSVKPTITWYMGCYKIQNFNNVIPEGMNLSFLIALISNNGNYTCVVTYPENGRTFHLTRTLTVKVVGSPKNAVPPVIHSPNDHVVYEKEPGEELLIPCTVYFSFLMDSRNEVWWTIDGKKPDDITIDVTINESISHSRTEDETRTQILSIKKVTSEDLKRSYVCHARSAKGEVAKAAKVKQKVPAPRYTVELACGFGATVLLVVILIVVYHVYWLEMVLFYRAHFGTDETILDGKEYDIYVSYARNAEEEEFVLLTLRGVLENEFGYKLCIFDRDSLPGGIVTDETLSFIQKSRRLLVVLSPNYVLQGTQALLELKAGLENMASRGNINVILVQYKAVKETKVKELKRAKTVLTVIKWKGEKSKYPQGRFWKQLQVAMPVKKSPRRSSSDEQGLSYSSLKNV
Assay: cell-based or functional assay
So I've got a bunch of binders here, and I need their functional reporter gene assay (% inhibition), 0.04 µg/mL mAb values.
The answer should read as a number with its unit following.

Task item: Given P013.S.01.B.F05 (antibody, V domains shown, rabbit monoclonal antibody; also called P013.A.00087.C06) VH: QSLEESGGRLVTPGGSLTLTCTVSGIDLSNYAMSWVRQAPGKGLEWIGSVISGGSTYYATWAKGRFTISKTSTTVDLKMTSLTTEDTATYFCARGCPGYNGDKYALDLWGPGTVVTVSS VL: AFEMTQTPSSVSEPVGGTVTIKCQASQSIHNYLSWYQQKPGQRPKLLIYRASTLASGVPSRFKGSGSGTEFTLTISGVESADAATYYCQQGATSYDIDNAFGGGTEVVVK , state its recorded functional reporter gene assay (% inhibition), 0.04 µg/mL mAb.
Reply: 44%

Task item: Repeat with P013.S.01.B.D05 (antibody, V domains shown, rabbit monoclonal antibody; also called P013.A.00085.G03) VH: EQSGGGAEGGLVKPGGSLELYCKASGFSLSSDAWICWVRQAPGKGLEWIGCIYAGSASNTYYATWVNGRFTLSRDIAQSTGCLQLNSLTAADTAMYYCARDRGYDDYGDITRLDLWGQGTLVTVSS VL: ALVLTQTPSPVSAAVGGTVTINCQASEDIYSNLAWFQQKPGQPPKLLIYRASTLASGVPSRFSGSGSGTEFTLTISGLQSDDAATYYCLGVYTYLSDLFFVFGGGTEVVVK
Reply: 26%

Task item: Repeat with P013.S.02.B.E04 (antibody, V domains shown, rabbit monoclonal antibody; also called P013.A.00088.A02) VH: QSLEESGGDLVKPGASLTLTCTASGFSLSSGGMSWVRQAPGKGLGWIGYINTGSGSTYYASWVNGRFTISKTSSTTVSLQMTSLTAADTATYFCAGGLPSDLWGPGTLVTVSS VL: DIVMTQTPSSVEAAVGGTVTIKCQASQSINSRLAWYQQKPGQPPKLLIYSASTLASGVSSRFKGSGSGTEFTLTISDLESADGATYYCLSHYLTSSSSYGDAFGGGTEVVVK
Reply: 11%

Task item: Repeat with P013.S.01.B.E06 (antibody, V domains shown, rabbit monoclonal antibody; also called P013.A.00030.F07) VH: QSLEESGGDLVKPGASLTLTCTASGFSFSSTYYMCWVRQAPGKGLEWIACIYAGSSGSTYYASWAKGRFTISKTSSTTVTLQMTSLTAADTATYFCARVDGSSSGSWDLWGPGTLVTVSS VL: AIEMTQTPSSVSAAVGGTVTINCQASQNIYSNLAWYQQKPGQRPKLLIYAASLLASGVPSRFKGNGSGTEYTLTISDLESADAATYYCQGAVYSGNTEWAFGGGTEVVVK
Reply: 44%
